These entries and their values trace back to patent US20140378382A1.

Target: T1, rat parathyroid hormone receptor 1, wild-type (rPTHR-1) (rat, UniProt P25961 27-591)
T1 construct: whole, on cells; also called rat PTHR-1; rPTHR-1-WT
T1 sequence (looked up): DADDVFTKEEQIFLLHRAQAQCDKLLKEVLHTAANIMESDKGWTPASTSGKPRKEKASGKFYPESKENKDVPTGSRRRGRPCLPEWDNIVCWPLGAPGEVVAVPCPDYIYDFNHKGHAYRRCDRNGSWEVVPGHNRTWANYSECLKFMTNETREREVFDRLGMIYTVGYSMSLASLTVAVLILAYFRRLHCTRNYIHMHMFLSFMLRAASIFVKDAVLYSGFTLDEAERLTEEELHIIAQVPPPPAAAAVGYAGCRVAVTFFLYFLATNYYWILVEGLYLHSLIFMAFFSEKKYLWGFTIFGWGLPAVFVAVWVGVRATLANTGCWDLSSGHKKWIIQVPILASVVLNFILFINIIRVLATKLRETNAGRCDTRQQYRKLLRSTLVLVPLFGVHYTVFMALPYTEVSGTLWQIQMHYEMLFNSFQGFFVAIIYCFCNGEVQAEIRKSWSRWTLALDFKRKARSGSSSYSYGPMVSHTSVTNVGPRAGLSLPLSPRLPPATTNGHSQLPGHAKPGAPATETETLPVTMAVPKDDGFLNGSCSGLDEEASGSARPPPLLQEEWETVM
Assay: R0 state; 125I-PTH(1-34) displacement; COS-7 membranes, rPTHR-1, GTPγS
Non-standard residues stand in square brackets, D forms with d. No end group written: not given here. β3hW = N[C@H](CC(=O)O)Cc1c[nH]c2ccccc12; β3hE = N[C@@H](CCC(=O)O)CC(=O)O; β3hF = N[C@H](CC(=O)O)Cc1ccccc1; β3hK = NCCCC[C@H](N)CC(=O)O; β3hM = CSCC[C@H](N)CC(=O)O; β3hD = NC(CC(=O)O)CC(=O)O
Readout Type: -log (IC50)

# example entries with known answers
{"Binder": "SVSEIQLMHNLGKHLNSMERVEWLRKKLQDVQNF-NH2 (not fully specified (residues 20, 24, 28, 32); printed as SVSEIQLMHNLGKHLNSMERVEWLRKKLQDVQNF-NH2; also: five β3 residues, positions not given here in text, also called α/β-peptide B5) [B5]", "-log (IC50)": 7.18}
{"Binder": "SVSEIQLMHNLGK[β3hW]LNS[β3hM]ERV[β3hE]WLR[β3hK]KLQ[β3hD]VHN[β3hF]-NH2 (also called α/β-peptide D6) [D6]", "-log (IC50)": 8.22}
{"Binder": "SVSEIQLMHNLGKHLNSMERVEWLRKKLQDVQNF-NH2 (not fully specified (residue 32); printed as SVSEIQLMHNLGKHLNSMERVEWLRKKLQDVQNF-NH2; also: three β3 residues, positions not given here in text, also called α/β-peptide B3) [B3]", "-log (IC50)": 6.95}

Let's switch to this binder now.
Ask | If you can, please state the reported -log (IC50) value of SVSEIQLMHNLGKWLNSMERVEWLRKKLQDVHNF-NH2 (not fully specified (residue 14); printed as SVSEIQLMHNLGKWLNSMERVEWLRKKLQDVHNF-NH2; also: seven β3 residues, positions not given here in text, also called α/β-peptide D7) [D7] .
Reply | 7.83
